The reported measurements were obtained from the supplement of paper PMC13094657.

Test system: MDA-MB-231
Assay: cell viability relative to vehicle unstimulated control (fraction); higher = more viable cells
Conditions: pre-treatment time: 18 h then 24 h IFNg/TNF
Parameter cell viability: see the listing below.
Readout: cell viability

>  <Compound>
C/C1=C\[C@@H]2[C@H](CC/C(C)=C/CC(=O)/C(C)=C/CC1)C2(C)C [5-ketocasbene/9-ketocasbene] (compound dose: 10 uM)

>  <Value reported>
1.16

$$$$
>  <Compound>
CC(=O)O[C@@H]1CC[C@@]2(C)[C@@H](CC[C@]3(C)[C@@H]2[C@H](O)C=C2[C@@H]4[C@@H](C)[C@H](C)CC[C@]4(C)CC[C@]23C)[C@@]1(C)C(=O)O [3-O-Acetyl-11-hydroxy-beta-boswellic acid] (compound dose: 10 uM)

>  <Value reported>
0.863

$$$$
>  <Compound>
C=C1CC[C@H]2[C@@H](/C=C(\C)C(=O)[C@@]3(OC(C)=O)C[C@H](C)[C@H](OC(=O)c4cccnc4)[C@@H]3[C@H]1OC(C)=O)C2(C)C [Euphorbia factor L8] (compound dose: 10 uM)

>  <Value reported>
1.1

$$$$
>  <Compound>
C[C@H]1O[C@@H](O[C@H]2[C@@H](O)C[C@H](O[C@H]3[C@@H](O)C[C@H](O[C@H]4CC[C@@]5(C)[C@H](CC[C@@H]6[C@@H]5C[C@@H](O)[C@]5(C)[C@@H](C7=CC(=O)OC7)CC[C@]65O)C4)O[C@@H]3C)O[C@@H]2C)C[C@H](O)[C@@H]1O [Digoxin] (compound dose: 10 uM)

>  <Value reported>
0.543

$$$$

* * *

# kynurenine production listing for each entry below
Tested on: MDA-MB-231
Assay: kynurenine production, fold change vs DMSO IFNg/TNF control; higher = more kynurenine produced (less inhibition)
Conditions: pre-treatment time: 18 h then 24 h IFNg/TNF
Structures can show the parent of a compound that is named as a salt.

>  <Compound>
C/C1=C\C(=O)c2c(C)coc2C/C(C)=C/CC1 [Furanodienone] (compound dose: 10 uM)

>  <kynurenine production>
0.759

$$$$
>  <Compound>
CC1=CC23C(=O)C(C=C4COC(C)(C)OC4C2(O)C1O)C1C(CC3C)C1(C)C (configuration not stated) [Ingenol-5,20-acetonide] (compound dose: 10 uM)

>  <kynurenine production>
1.07

$$$$
>  <Compound>
C[C@H](CC[C@@H](O)C(C)(C)O)[C@H]1CC[C@@]2(C)[C@@H]3CC=C4[C@@H](CC[C@H](O)C4(C)C)[C@]3(C)[C@H](O)C[C@]12C [Mogrol] (compound dose: 10 uM)

>  <kynurenine production>
0.905

$$$$
>  <Compound>
C/C1=C\[C@H]2C(=O)[C@@H](C)C[C@]2(O)C(=O)/C(C)=C/[C@@H]2[C@H](CC1)C2(C)C [jolkinol C] (compound dose: 10 uM)

>  <kynurenine production>
0.868

$$$$
>  <Compound>
CC(C)=CCC/C(C)=C/CC/C(C)=C/CC/C=C(\C)CC/C=C(\C)CCC=C(C)C [Squalene] (compound dose: 10 uM)

>  <kynurenine production>
0.887

$$$$
>  <Compound>
CC(/C=C/C=C(\C)C(=O)O)=C\C=C\C=C(C)\C=C\C=C(/C)C(=O)O [Transcrocetin meglumine salt] (compound dose: 10 uM)

>  <kynurenine production>
0.737

$$$$
>  <Compound>
C/C=C(/C)C(=O)O[C@H]1C(C)=C[C@]23C(=O)[C@@H](C=C(CO)[C@@H](O)[C@]12O)[C@H]1[C@@H](C[C@H]3C)C1(C)C [Ingenol 3-Angelate] (compound dose: 10 uM)

>  <kynurenine production>
0.979

$$$$
>  <Compound>
O=c1ccoc2cc(O)cc(O)c12 [5.7-dihydroxychromone] (compound dose: 10 uM)

>  <kynurenine production>
0.868

$$$$
>  <Compound>
C=C1CC[C@H]2[C@@H](/C=C(\C)C(=O)[C@@]3(OC(C)=O)C[C@H](C)[C@H](OC(=O)c4cccnc4)[C@@H]3[C@H]1OC(C)=O)C2(C)C [Euphorbia factor L8] (compound dose: 10 uM)

>  <kynurenine production>
0.89

$$$$
>  <Compound>
Cc1coc2c1C(=O)C(=O)c1c-2ccc2c(C)cccc12 [Tanshinone I] (compound dose: 2 uM)

>  <kynurenine production>
0.643

$$$$
>  <Compound>
CC(=O)O[C@@H]1CC[C@@]2(C)[C@@H](CC[C@]3(C)[C@@H]2C(=O)C=C2[C@@H]4[C@@H](C)[C@H](C)CC[C@]4(C)CC[C@]23C)[C@@]1(C)C(=O)O (compound dose: 10 uM)

>  <kynurenine production>
1.06

$$$$
>  <Compound>
CC(=O)OC(CC12C3C(C(C)C)CCC1(C)C1CCC4(CCCC42)N3C1)C(=O)C1(C)COC2(C)CCC1O2 (configuration not stated) [Daphniphylline] (compound dose: 10 uM)

>  <kynurenine production>
0.75

$$$$
>  <Compound>
CC(=O)O[C@H]1/C(CO)=C\C[C@H]2[C@@H](/C=C(/C)C(=O)[C@@]3(OC(C)=O)C[C@H](C)[C@H](OC(=O)c4ccccc4)[C@H]13)C2(C)C [Euphorbia factor L24] (compound dose: 10 uM)

>  <kynurenine production>
0.911

$$$$
>  <Compound>
CC1OC(OC2C(CO)OC(OCC3OC(OC(=O)C45CCC(C)(C)CC4C4=CCC6C7(C)CCC(OC8OCC(O)C(O)C8O)C(C)(CO)C7CCC6(C)C4(C)CC5)C(O)C(O)C3O)C(O)C2O)C(O)C(O)C1O (configuration not stated) [Hederacoside D] (compound dose: 10 uM)

>  <kynurenine production>
0.851

$$$$
>  <Compound>
C=C(C)[C@@H]1CC=C(C)C(=O)C1 [L(-)-carvone] (compound dose: 10 uM)

>  <kynurenine production>
0.974

$$$$
>  <Compound>
CC1(C)CCC[C@](C)([C@H]2CC[C@]3(C)[C@@H]2[C@H](O)C[C@@H]2[C@@]4(C)CC[C@H](O)C(C)(C)[C@@H]4[C@@H](O)C[C@]23C)O1 [Panaxatriol] (compound dose: 10 uM)

>  <kynurenine production>
0.846

$$$$
>  <Compound>
C[C@@H]1CC[C@H]2[C@@H](C)C(=O)O[C@@H]3O[C@@]4(C)CC[C@@H]1[C@]32O4 [Deoxyartemisinin] (compound dose: 10 uM)

>  <kynurenine production>
0.852

$$$$
>  <Compound>
CC(C)=CCC[C@@H](C(=O)O)[C@H]1CC[C@@]2(C)C3=CC[C@H]4C(C)(C)[C@@H](O)CC[C@]4(C)C3=CC[C@]12C [3-Dehydrotrametenolic acid] (compound dose: 10 uM)

>  <kynurenine production>
0.83

$$$$
>  <Compound>
C=C1CC[C@@H]2[C@](C)(COC(=O)CCC(=O)O)[C@H](OC(=O)CCC(=O)O)CC[C@@]2(C)[C@@H]1/C=C/C1=CCOC1=O [Kalii Dehydrographolidi Succinas] (compound dose: 2 uM)

>  <kynurenine production>
1.27

$$$$
>  <Compound>
CC12CCC(CC1=O)C2(C)C (stereo not drawn) [(+)-Camphor] (compound dose: 10 uM)

>  <kynurenine production>
0.98

$$$$
>  <Compound>
C=C(C(=O)O)[C@@H]1CC[C@@H](C)[C@@H]2CCC(C)=C[C@@H]21 [Artemisic acid] (compound dose: 10 uM)

>  <kynurenine production>
0.594

$$$$
>  <Compound>
O=C1C[C@@H](O[C@@H]2O[C@H](CO)[C@@H](O)[C@H](O)[C@H]2O)CO1 [Kinsenoside] (compound dose: 10 uM)

>  <kynurenine production>
1.01

$$$$

* * *

Test system: MDA-MB-231
Assay: cell viability relative to vehicle unstimulated control (fraction); higher = more viable cells
Settings: pre-treatment time: 18 h then 24 h IFNg/TNF
cell viability overview
Readout: cell viability

>  <Compound>
C=C1C[C@@]23CC[C@H]4[C@@](C)(CCC[C@@]4(C)C(=O)O)[C@@H]2CC[C@]1(O[C@@H]1O[C@@H](CO)[C@@H](O)[C@H](O)[C@@H]1O[C@@H]1O[C@@H](CO)[C@@H](O)[C@H](O)[C@@H]1O)C3 [Steviolbioside] (compound dose: 10 uM)

>  <Readout>
cell viability

>  <Value reported>
0.904

$$$$
>  <Compound>
COC(=O)C1=CC[C@@]23CC[C@@H]([C@@](C)(/C=C/C=C(\C)C(=O)O)OC2=O)[C@@]3(O)CC1 [Pseudolaric Acid C] (compound dose: 10 uM)

>  <Readout>
cell viability

>  <Value reported>
0.927

$$$$
>  <Compound>
CC1(C)CC[C@]2(C(=O)O[C@@H]3O[C@H](CO)[C@@H](O)[C@H](O)[C@H]3O)CC[C@]3(C)C(=CC[C@@H]4[C@@]5(C)CC[C@H](O[C@@H]6O[C@H](CO)[C@@H](O)[C@H](O[C@@H]7O[C@H](CO)[C@@H](O)[C@H](O)[C@H]7O)[C@H]6O[C@@H]6O[C@H](CO)[C@@H](O)[C@H](O)[C@H]6O)[C@@](C)(CO)[C@@H]5CC[C@]43C)[C@@H]2C1 [Araloside VII] (compound dose: 10 uM)

>  <Readout>
cell viability

>  <Value reported>
0.941

$$$$
>  <Compound>
C[C@H]1O[C@@H](O[C@H]2CC[C@@]3(C)[C@@H](CC[C@]4(C)[C@@H]3C=C[C@]35OC[C@@]6(CCC(C)(C)C[C@H]63)[C@@H](O)C[C@]54C)[C@]2(C)CO)[C@H](O)[C@@H](O[C@@H]2O[C@H](CO)[C@@H](O)[C@H](O)[C@H]2O)[C@H]1O [Saikosaponin A] (compound dose: 10 uM)

>  <Readout>
cell viability

>  <Value reported>
1.01

$$$$
>  <Compound>
C[C@H]1O[C@@H](Oc2ccc(COC(=O)CC(O)(CC(=O)OCc3ccc(O[C@@H]4O[C@H](CO)[C@@H](O)[C@H](O)[C@H]4O)cc3)C(=O)Oc3ccc(O[C@H]4O[C@H](CO)[C@@H](O)[C@H](O)[C@H]4O)cc3)cc2)[C@H](O)[C@@H](O)[C@@H]1O (stereo not given in full) [Parishin] (compound dose: 10 uM)

>  <Readout>
cell viability

>  <Value reported>
0.985

$$$$
>  <Compound>
C[C@H]1[C@H](C)CC[C@]2(C(=O)O)CC[C@]3(C)C(=CC[C@@H]4[C@@]5(C)C[C@@H](O)[C@H](O)[C@@](C)(CO)[C@@H]5[C@H](O)C[C@]43C)[C@H]12 [Madecassic acid] (compound dose: 10 uM)

>  <Readout>
cell viability

>  <Value reported>
0.899

$$$$
>  <Compound>
COC(=O)c1cccnc1 [Methyl nicotinate] (compound dose: 10 uM)

>  <Readout>
cell viability

>  <Value reported>
0.974

$$$$
>  <Compound>
COC(=O)C1=CO[C@@H](O)[C@@H]2C(CO)=CC[C@H]12 [Genipin] (compound dose: 10 uM)

>  <Readout>
cell viability

>  <Value reported>
1

$$$$
>  <Compound>
CC1(C)CCCC2(C)C1CCC1(C)OCCC12 (stereo not given) [Ambroxide] (compound dose: 10 uM)

>  <Readout>
cell viability

>  <Value reported>
0.964

$$$$
>  <Compound>
CC(CC(=O)C[C@@H](C)[C@H]1CC(=O)[C@@]2(C)C3=C(C(=O)[C@@H](O)[C@]12C)[C@@]1(C)CC[C@H](O)C(C)(C)[C@@H]1C[C@@H]3O)C(=O)O (stereo not given in full) [Ganoderic acid G] (compound dose: 10 uM)

>  <Readout>
cell viability

>  <Value reported>
1.1

$$$$
>  <Compound>
CC1(C)O[C@H]2CC(=O)OC[C@]23[C@H]2CC[C@@]4(C)[C@H](c5ccoc5)OC(=O)[C@H]5O[C@]54[C@]2(C)C(=O)C[C@@H]13 [Limonin] (compound dose: 10 uM)

>  <Readout>
cell viability

>  <Value reported>
0.982

$$$$
>  <Compound>
C=C1CC[C@H]2C(=C)CC[C@H]3C(=C)C(=O)O[C@@H]3[C@@H]12 [Dehydrocostus Lactone] (compound dose: 10 uM)

>  <Readout>
cell viability

>  <Value reported>
0.933

$$$$
>  <Compound>
CC12CCC(CC1=O)C2(C)C (stereo not drawn) [(+)-Camphor] (compound dose: 10 uM)

>  <Readout>
cell viability

>  <Value reported>
1

$$$$
>  <Compound>
CC1=CC[C@@](O)(C(C)C)CC1 [Terpinen-4-ol] (compound dose: 10 uM)

>  <Readout>
cell viability

>  <Value reported>
1.12

$$$$
>  <Compound>
O=C(OCC1=C[C@@H](O)[C@@H]2C=CO[C@@H](O[C@@H]3O[C@H](CO)[C@@H](O)[C@H](O)[C@H]3O)[C@H]12)c1ccc(O)cc1 [Agnuside] (compound dose: 10 uM)

>  <Readout>
cell viability

>  <Value reported>
1.08

$$$$
>  <Compound>
COc1cc2c(cc1O)C(Cc1ccc(O)cc1)NCC2 (stereo not given) [Coclaurine] (compound dose: 10 uM)

>  <Readout>
cell viability

>  <Value reported>
0.988

$$$$
>  <Compound>
CC1=CC[C@@H](C(C)(C)O)CC1 [(-)-α-terpineol] (compound dose: 10 uM)

>  <Readout>
cell viability

>  <Value reported>
0.979

$$$$
>  <Compound>
C=C1C[C@@]23CC[C@H]4[C@@](C)(CCC[C@@]4(C)C(=O)O[C@@H]4O[C@H](CO)[C@@H](O)[C@H](O)[C@H]4O)[C@@H]2CC[C@]1(O[C@@H]1O[C@H](CO)[C@@H](O)[C@H](O)[C@H]1O)C3 [Rubusoside] (compound dose: 10 uM)

>  <Readout>
cell viability

>  <Value reported>
1.07

$$$$
>  <Compound>
C=C1C[C@@]2(O)O[C@@]3(C[C@H]2C(C)C)[C@@H](C)CC[C@@H]13 [Curcumol] (compound dose: 10 uM)

>  <Readout>
cell viability

>  <Value reported>
0.997

$$$$
>  <Compound>
C/C=C(/C)C(=O)O[C@H]1C(C)=C[C@]23C(=O)[C@@H](C=C(CO)[C@@H](O)[C@]12O)[C@H]1[C@@H](C[C@H]3C)C1(C)C [Ingenol Mebutate] (compound dose: 10 uM)

>  <Readout>
cell viability

>  <Value reported>
1.01

$$$$
